Assay: Toxicity in BALB/c mouse infected with Leishmania donovani promastigotes assessed as serum ALT level at 50 mg/kg , ip measured after 3 to 7 weeks (rvb = 31 IU/L)
Type: organism-based
Conditions: in vivo
observable: Activity

Given the molecule CCOC(=O)C(C(=O)c1ccc(OC)cc1)C(NC(C)=O)c1cccc2ccccc12 (stereo unspecified) , what is its reported Activity?
17 to 177 IU/L

* * *

Quick reference for remaining at 2 h, 10 ug/ml among some molecules
Assay: Stability in simulated gastric fluid at 10 ug/ml measured after 2 hrs by UPLC analysis relative to control
Type: ADME
Settings: read-out: Stability
Dear colleague, please return just the value in %, with no unit written.

CCOC(=O)C(C(=O)c1ccc(OC)cc1)C(NC(C)=O)c1cccc2ccccc12 (configuration not stated) ... 81.9

Here is the next item to consider.
Given the molecule CCOC(=O)C(C(=O)c1ccc(OC)cc1)C(NC(C)=O)c1cc(OC)ccc1Br (configuration not stated) , what is its reported remaining at 2 h, 10 ug/ml?
71.1

* * *

Experiment: Cytotoxicity against BALB/c mouse splenocytes assessed as cell viability at 100 uM after 72 hrs by MTT assay relative to control
Type: cell-based, Splenocyte
Conditions: read-out: Activity
observable: viability at 72 h, 100 µM

Given the compound CCOC(=O)C(C(=O)c1ccc(OC)cc1)C(NC(C)=O)c1cccc2ccccc12 (stereo unspecified) , what is its reported viability at 72 h, 100 µM?
> 90.2%

* * *

Quick reference for half-life among some molecules
Experiment: Half life in mouse liver microsomes after 1 hr in presence of NADPH by UPLC analysis
Type: ADME, Microsome
Quick note: number first, unit second.

CCOC(=O)C(C(=O)c1ccc(OC)cc1)C(NC(C)=O)c1cc(OC)ccc1Br (configuration not stated) ... 1.55 h

Here is the next item to consider.
Given the molecule CCOC(=O)C(C(=O)c1ccc(OC)cc1)C(NC(C)=O)c1cccc2ccccc12 (configuration not stated) , what is its reported half-life?
5.22 h

* * *

Assay: Cytotoxicity against African green monkey Vero cells assessed as cell viability at 100 uM by MTT assay relative to control
Assay type: cell-based
Conditions: chlorocebus sabaeus, read-out: Activity
One threshold, 90%, splits the recorded viability at 100 µM values: lower ones are True, equal or higher ones are False.

For orientation, consider the following solved cases.
CCOC(=O)C(C(=O)c1ccc(OC)cc1)C(NC(C)=O)c1cccc2ccccc12 (configuration not stated) ... False
CSc1ccc(C(=O)C(c2ccc(Cl)c(Cl)c2)C(NC(C)=O)c2cccc3ccccc23)cc1 (configuration not stated) ... True
CSc1ccc(C(=O)C(c2ccc(Cl)c(Cl)c2)C(NC(=O)c2cccc(C)c2)c2cc3ccccc3s2)cc1 (configuration not stated) ... True

# ---- query molecule ----
# strict comparison: is reported viability at 100 µM < 90%? input = "CSc1ccc(C(=O)/C(=C/c2cc3ccccc3s2)c2ccc(Cl)c(Cl)c2)cc1"
True

* * *

Experiment: Clearance in BALB/c mouse at 50 mg/kg, ip by HPLC analysis
Type: ADME, organism-based
Settings: in vivo
observable: CL/F (mL/min/kg)
Dear colleague, please return just the value in mL/min/kg, with no unit written.

Given the molecule CCOC(=O)C(C(=O)c1ccc(OC)cc1)C(NC(C)=O)c1cccc2ccccc12 (stereo unspecified) , what is its reported CL/F?
664

* * *

Assay: Cytotoxicity against African green monkey Vero cells assessed as cell viability at 25 uM by MTT assay relative to control
Assay type: cell-based
Details: chlorocebus sabaeus, read-out: Activity
observable: viability at 25 µM (%)
Dear colleague, please return just the value in %, with no unit written.

CSc1ccc(C(=O)C(c2ccc(Cl)c(Cl)c2)C(NC(C)=O)c2cccc3ccccc23)cc1 (stereo not given) ... 90.1

Here is the next item to consider.
Given the compound CCOC(=O)C(C(=O)c1ccc(OC)cc1)C(NC(C)=O)c1ccc(OC)c(OC)c1 (stereo not given) , what is its reported viability at 25 µM?
99.1

* * *

System: Leishmania donovani
Experiment: Antileishmanial activity against Leishmania donovani MHOM/IN/80/Dd8 amastigotes harboring luciferase reporter gene infected in mouse J774 cells after 48 hrs by Giemsa staining-based microscopic assay
Format: functional, organism-based
Settings: MHOM/IN/80/Dd8, J774, 48 h
observable: pIC50
pIC50 is defined as minus the log10 of a concentration measured in mol/L.

Given the compound CCOC(=O)C(C(=O)c1ccc(OC)cc1)C(NC(C)=O)c1cccc2ccccc12 (stereo unspecified) , what is its reported pIC50?
4.77

* * *

Experiment: Cytotoxicity against African green monkey Vero cells assessed as cell viability up to 100 uM after 72 hrs by MTT assay relative to control
Format: cell-based
Settings: chlorocebus sabaeus, read-out: Activity
observable: viability at 72 h

Given the compound CCOC(=O)C(C(=O)c1ccc(OC)cc1)C(NC(C)=O)c1cccc2ccccc12 (stereo unspecified) , what is its reported viability at 72 h?
> 93%

* * *

Assay: Cytotoxicity against mouse J774 cells assessed as reduction in cell viability after 72 hrs by MTT assay
Type: cell-based
observable: CC50 at 72 h

Given the compound CCOC(=O)C(C(=O)c1ccc(OC)cc1)C(NC(C)=O)c1cccc2ccccc12 (stereo unspecified) , what is its reported CC50 at 72 h?
> 350 µM

* * *

Assay: Half life in BALB/c mouse at 50 mg/kg, ip by HPLC analysis
Type: ADME, organism-based
Conditions: in vivo
observable: half-life

Given the compound CCOC(=O)C(C(=O)c1ccc(OC)cc1)C(NC(C)=O)c1cccc2ccccc12 (stereo unspecified) , what is its reported half-life?
5.11 h

* * *

Assay: Cmax in BALB/c mouse at 50 mg/kg, ip by HPLC analysis
Type: ADME, organism-based
Set-up: dose 50 mg/kg, route intraperitoneal
Conditions: in vivo
observable: Cmax
Quick note: number first, unit second.

Given the compound CCOC(=O)C(C(=O)c1ccc(OC)cc1)C(NC(C)=O)c1cccc2ccccc12 (stereo unspecified) , what is its reported Cmax?
2080 ng/mL

* * *

Quick reference for viability at 50 µM among some molecules
Experiment: Cytotoxicity against African green monkey Vero cells assessed as cell viability at 50 uM by MTT assay relative to control
Format: cell-based
Details: chlorocebus sabaeus, read-out: Activity
Dear colleague, please return just the value in %, with no unit written.

CSc1ccc(C(=O)C(c2ccc(Cl)c(Cl)c2)C(NC(=O)c2cccc(C)c2)c2cccc3ccccc23)cc1 (configuration not stated) ... 90.7
CSc1ccc(C(=O)/C(=C/c2ccccn2)c2ccc(Cl)c(Cl)c2)cc1 ... 93.6
CSc1ccc(C(=O)C(c2ccc(Cl)c(Cl)c2)C(NC(C)=O)c2cccc3ccccc23)cc1 (configuration not stated) ... 89.3
CSc1ccc(C(=O)C(c2ccc(Cl)c(Cl)c2)C(NC(=O)c2ccc(C)cc2)c2cccc3ccccc23)cc1 (configuration not stated) ... 89.6
CCOC(=O)C(C(=O)c1ccc(OC)cc1)C(NC(C)=O)c1ccc(OC)c(OC)c1 (configuration not stated) ... 96.7

Given the molecule CSc1ccc(C(=O)C(c2ccc(Cl)c(Cl)c2)C(NC(=O)c2ccc(Br)cc2)c2cccc3ccccc23)cc1 (configuration not stated) , what is its reported viability at 50 µM?
90.2

Given the molecule "CSc1ccc(C(=O)/C(=C/c2cc3ccccc3s2)c2ccc(Cl)c(Cl)c2)cc1" , what is its reported viability at 50 µM?
91.6

Given the molecule CSc1ccc(C(=O)C(c2ccc(Cl)c(Cl)c2)C(NC(=O)c2ccccc2)c2cc3ccccc3s2)cc1 (configuration not stated) , what is its reported viability at 50 µM?
92.4

Given the molecule CCOC(=O)C(C(=O)c1ccc(OC)cc1)C(NC(C)=O)c1cccc2ccccc12 (configuration not stated) , what is its reported viability at 50 µM?
98.7

* * *

Experiment: Cytotoxicity against mouse J774 cells assessed as cell viability up to 100 uM after 72 hrs by MTT assay relative to control
Type: cell-based
Conditions: read-out: Activity
observable: viability at 72 h

Given the compound CCOC(=O)C(C(=O)c1ccc(OC)cc1)C(NC(C)=O)c1cccc2ccccc12 (stereo unspecified) , what is its reported viability at 72 h?
> 93%

* * *

Quick reference for remaining at 2 h, 10 ug/ml among some compounds
Experiment: Stability in simulated intestinal fluid at 10 ug/ml measured after 2 hrs by UPLC analysis relative to control
Assay type: ADME
Conditions: read-out: Stability
Dear colleague, please return just the value in %, with no unit written.

CCOC(=O)C(C(=O)c1ccc(OC)cc1)C(NC(C)=O)c1cc(OC)ccc1Br (configuration not stated) ... 69.6

Here is the next item to consider.
Given the compound CCOC(=O)C(C(=O)c1ccc(OC)cc1)C(NC(C)=O)c1cccc2ccccc12 (configuration not stated) , what is its reported remaining at 2 h, 10 ug/ml?
80.2

* * *

Experiment: Cytotoxicity against African green monkey Vero cells assessed as cell viability at 100 uM by MTT assay relative to control
Type: cell-based
Settings: chlorocebus sabaeus, read-out: Activity
observable: viability at 100 µM (%)
Dear colleague, please return just the value in %, with no unit written.

// below: answered compounds
CSc1ccc(C(=O)/C(=C/c2cccnc2)c2ccc(Cl)c(Cl)c2)cc1 ... 88.6
CCOC(=O)C(C(=O)c1ccc(OC)cc1)C(NC(C)=O)c1ccc(C(C)C)cc1 (stereo not drawn) ... 90.4
CSc1ccc(C(=O)C(c2ccc(Cl)c(Cl)c2)C(NC(=O)c2ccccc2)c2cc3ccccc3s2)cc1 (stereo not drawn) ... 88
CCOC(=O)C(C(=O)c1ccc(OC)cc1)C(NC(C)=O)c1cc(OC)ccc1Br (stereo not drawn) ... 90.7

Given the compound CSc1ccc(C(=O)C(c2ccc(Cl)c(Cl)c2)C(NC(=O)c2cccc(C)c2)c2cccc3ccccc23)cc1 (stereo not drawn) , what is its reported viability at 100 µM?
87.6

Given the compound CCOC(=O)C(C(=O)c1ccc(OC)cc1)C(NC(C)=O)c1cc(OC)c(OC)c(OC)c1 (stereo not drawn) , what is its reported viability at 100 µM?
88.9
